Assignment: determine reported A450 absorbance for the given binders.
# study_system: T1, SEMG2(442-453) fragment (human)
# T1 peptide: IHGKSQNQVTIP
# assay_info: ELISA, immobilized antigen SEMG2 (442-453)
Give bare numbers.

INSERT INTO assay_data (binder, result_number) VALUES
  ('MM07 (antibody, V domains shown, The VH and VL begin with what look like leader peptides (MDWLW..., MVSSAQ...)) VH: QIQLVQSGPELKKPGETVRISCKASGYTLTTAGMQWVQKIPGKGLKWIGWINTHSGVAEFAEDFKGRFAFSLETSANTAYLQIRNLKNEDTATYFCARLGLLGYWGQGTTLTVSS VL: DILLTQSPAILSVSPGERVSFSCRASQSIGTTIHWYQQRTNGSPRLLIKYASESISGIPSRFSGSGSGTDFTLSINSVESEDIADYYCQQSNSWPWTFGGGTKLEIKR', 0.011),
  ('MM05 (antibody, IgG1, V domains shown) VH: QVQLQQPGAELVRPGASVKLSCEASGYTFTSYWMNWVKQRPGQGLEWIGMIDPSDSETHYNQMFKDKATLTVDKSSSTAYMQLSSLTSEDSAVYYCARYLGGKEGSFDYWGQGTTLTVSS VL: DIVMSQSPSSLAVSAGEKVTMSCKSSQSLLNSRTRKNYLAWYQQKPGQSPKLLIYWASTRESGVPDRFTGSGSGTDFTLTISSVQAEDLAVYYCKQSYSLPWTFGGGTKLEIKR', 0.009),
  ('MM14 (antibody, IgG2b, V domains shown) VH: QVQLKESGPGLVAPSQSLSITCTVSGFSLTSYAVSWVRQPPGKGLEWLGIIWGDGSTNYHSALISRLSISKDNSKSQVFLKLNSLQTDDTATYYCAKQERFSDGYYDGFAYWGQGTLVTVSA VL: QIVLTQSPAIMSASPGEKVTITCSASSSVSYMHWFQQKPGTSPKLWIYSTSNLASGVPARFSGSGSGTSYSLTISRMEAEDAATYYCQQRSSYPFTFGSGTKLEIKR', 0.007);

Please turn your attention to the following entry.
response.value for MM02 (antibody, IgG2b, V domains shown) VH: QIQLVQSGPEVKKPGETVRISCKASGYTLTTAGIQWVQKMPGKGLKWIGWINTHSGVPEYAEDFKGRFAFFLETSASTAYLQISNLKNEDTATYFCARLGLLGYWGQGTTLTVSS VL: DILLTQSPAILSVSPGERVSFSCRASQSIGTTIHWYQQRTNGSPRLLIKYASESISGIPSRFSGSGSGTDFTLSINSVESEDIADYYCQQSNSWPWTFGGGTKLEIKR (field: A450 absorbance) = 0.001
